Parameter: growth inhibition. Scope: all listed entries.
Experiment: NCI Yeast Anticancer Drug Screen. Data for the rad50 strain (AID 155);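 also: 0% = growth of vehicle-only cultures of the same strain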
Conditions: S. cerevisiae rad50 strain growth inhibition; at 50.0 µM; stronger effect = higher value
This is part of a sample that, as a whole, favours compounds with a hit. Of some 79,000 tested, about 15% had one in any assay.
quantityName: growth inhibition (%)

* NC1=NC(=O)C(CC(=O)Nc2ccc(Cl)cc2Cl)S1 (stereo not drawn) | -12.4
* CCOC(=O)NN(C/C(Cl)=C/Cl)C/C(Cl)=C/Cl | -2
* CC1=NN(c2ccc([N+](=O)[O-])cc2)C(=O)C1 | 25.6
* CCCCS(=N)(=O)CC[C@H](N)C(=O)O (stereo partly drawn) | 2.3
* Cc1cc(C)c2c(c1)CSCc1cc(C)cc(C)c1-2 | 15.7
* N#CCCN(CCc1ccccn1)CN1C(=O)c2ccccc2C1=O | 10
* CC(Oc1ccccc1)C(=O)Nc1ccc(F)cc1 (stereo not drawn) | -1
* Cc1ccc(S(=O)(=O)Nc2nnc(CC(C)C)s2)cc1 | 36.2

====

Assay: NCI Yeast Anticancer Drug Screen. Data for the sgs1 mgt1 strain (AID 161);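 also: 0% = growth of cultures given vehicle only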
Details: S. cerevisiae sgs1 mgt1 strain, at 50.0 µM, stronger effect = higher value
This is part of a sample that, as a whole, favours compounds with a hit. Of some 79,000 tested, about 15% had one in any assay.
quantityName: growth inhibition (%)

- O=C(O)c1c[n+]([O-])ccc1Cl: -8
- O=C(Nc1ccc(Cl)c(Cl)c1)C1C(=O)N(c2ccc(Cl)c(Cl)c2)C(=O)/C1=N\O (stereo unspecified): 11.2
- COc1ccccc1NC(=S)N/N=C(/c1ccccc1)c1ccccn1: 17.4
- CC(=O)NC1C(OCc2ccccc2)OC(CO)C(O)C1OCc1ccccc1 (stereo unspecified): 15.6
- CC1(C)C(CC(=O)O)CC1C(=O)O (stereo unspecified): -27.4
- COC(=O)C1C2C=CC(C1C(=O)O)C1C(Br)=C(Br)C21 (stereo unspecified): -8.05
- O=C1c2c(ccc3c2CCC3)CC12Cc1cc3c(cc1C2)CCC3: -22.9
- N#C/C(=C\c1ccco1)c1ccc([N+](=O)[O-])cc1: 25.6
- O=C(NN1C(=O)CSC1c1ccc(F)cc1)c1ccncc1 (stereo unspecified): 4.15
- CC(=O)Nc1ccc[n+](CC(=O)c2ccc(F)cc2)c1: 4.35
- CCOc1ncc(C[n+]2csc(CCO)c2C)c(N)n1: 8.25
- CC1CC(C)c2ccccc21 (stereo unspecified): 17.8
- O=C1NC(=O)C(c2ccc3c(c2)OCO3)N1 (stereo unspecified): -6
- CCOC(=O)NC(=O)c1cn(C2OC(CO)C(O)C2O)c(=O)[nH]c1=O (stereo unspecified): -16.6
- COC(=O)C1=C(C)NC(C)=C(C(=O)OC)C1c1cccc(N=O)c1: 13.3
- O=C(O)c1ccccc1SC(Sc1ccccc1C(=O)O)c1cccs1: 3.75
- C=C(S(=O)(=O)c1ccccc1)S(=O)(=O)c1ccccc1 (tested in a mixture with another compound): 96.4
- Cc1nc(N)[nH]c(=O)c1CCCN=Cc1ccc([N+](=O)[O-])cc1: 14.4
- c1ccc(COCCc2ccccn2)cc1: -3.85
- CCOC(=O)C1=C(OC(OCC)C([Se]c2ccccc2)C(C)C)CCC1 (stereo unspecified): 65.2
- CC1(C)Nc2cc3c(cc2-n2cccc21)oc1ccccc13: 39.5
- CCCCCCCC(=O)Nc1ccc(-n2c(=O)cc(C)n2C)cc1: 12.2
- COc1cc2c(cc1OC)-c1cc3ccc(OC)c(OC)c3c[n+]1CC2: 23.6
- N#Cc1c(-c2ccco2)c2c(n(C3OC(CO)C(O)C(O)C3O)c1=S)CCCC2 (stereo unspecified): 15.7
- O=C1CCCC(=O)c2c(O)ccc(O)c21: 9.5
- OCc1cn(C(c2ccccc2)(c2ccccc2)c2ccccc2)cn1: -22.5
- COc1cc(C(=O)n2ncc(C(C)=O)c2C)cc(OC)c1OC: 12.9
- COc1cccc(/C=N\N=C\c2cccc(OC)c2O)c1O: -11.4
- CC(=O)N1CCc2ccccc2C1C1NCCc2ccccc21 (stereo unspecified): 13.1
- Cc1ccc2ccccc2c1Cc1c(C=O)[nH]c(=S)[nH]c1=O: 97
- CCCCCCn1c(=O)c(N(C)C)c(C)n(C)c1=O: -9.05
- O=C(C(=O)c1ccco1)c1ccco1: 34.1
- CCc1nc(N)nc(N)c1-c1ccc2nnn(O)c2c1: -4.8
- COC(=O)C(CCC1(C)OCCO1)=[N+]=[N-]: -15.1
- NS(=O)(=O)c1ccc(NC(=S)/N=C\c2c(O)[nH]c(=O)[nH]c2=O)cc1: -18.3
- CCOC(=O)C(C)c1nc2ccc(C(F)(F)F)cc2[nH]c1=O (stereo unspecified): 40.4

All figures here come from PubChem BioAssay (NCI).
